Experiment: Cytotoxicity against human Huh7.5 cells assessed as decrease in cell viability after 3 days by MTT assay
Format: cell-based
Details: time 3 day
Sorting guide: entries reporting CC50 at 72 h beneath 10 µM go in the y pile, the rest go in the n pile.

# example entries with known answers
[[record]]
molecule = "CCCCCNC(=O)C(c1ccc([N+](=O)[O-])cc1)N(C(=O)Cc1c[nH]c2ccccc12)c1ccc(Br)cc1 (configuration not stated)"
cat = "y"

[[record]]
molecule = "COc1ccc(N(C(=O)Cc2c[nH]c3ccccc23)C(C(=O)NC2CCCCC2)c2ccc([N+](=O)[O-])cc2)cc1OC (configuration not stated)"
cat = "n"

[[record]]
molecule = "COc1cc(C(C(=O)NC2CCCCC2)N(C(=O)Cc2c[nH]c3ccccc23)c2ccc(C(C)C)cc2)cc(OC)c1OC (configuration not stated)"
cat = "n"

[[record]]
molecule = "O=C(NC1CCCCC1)C(c1ccc([N+](=O)[O-])cc1)N(C(=O)Cc1c[nH]c2ccccc12)c1ccc(Br)cc1 (configuration not stated)"
cat = "n"

[[record]]
molecule = "COc1cccc(CCN(C(=O)Cc2c[nH]c3ccccc23)C(C(=O)NC2CCCCC2)c2ccc([N+](=O)[O-])cc2)c1 (configuration not stated)"
cat = "n"


Exercise: Please determine if CC(C)(C)NC(=O)C(c1ccc([N+](=O)[O-])cc1)N(C(=O)Cc1c[nH]c2ccccc12)c1ccc(Br)cc1 (configuration not stated) is below 10 µM in terms of CC50 at 72 h.
Solution: y
